- SUBJECT_OF_TEST: recombinant Sphingomyelinase D (SMase D) from L. laeta venom (Loxosceles laeta)
- Sequence (Q8I914 27-311 limits assumed): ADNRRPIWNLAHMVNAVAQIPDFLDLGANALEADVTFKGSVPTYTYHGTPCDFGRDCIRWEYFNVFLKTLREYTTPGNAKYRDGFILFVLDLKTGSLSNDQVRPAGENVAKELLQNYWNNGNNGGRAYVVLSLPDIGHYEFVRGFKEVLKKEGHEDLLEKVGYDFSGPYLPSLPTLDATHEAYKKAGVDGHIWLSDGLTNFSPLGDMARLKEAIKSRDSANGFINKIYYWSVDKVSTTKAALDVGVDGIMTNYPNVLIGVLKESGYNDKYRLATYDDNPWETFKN
- TEST_DESCRIPTION: biochemical
OBSERVABLE: pKi
Give bare numbers, as −log10 of the molar value.

>  <GIVEN_SMILES>
Cc1[nH]c2ccccc2c1/C=N/NS(=O)(=O)c1ccc(Br)cc1

>  <OBSERVABLE>
pKi

>  <OBSERVED_VALUE>
6.31

$$$$
>  <GIVEN_SMILES>
Cc1ccc(S(=O)(=O)Oc2cc(N)nc(SCc3ccc(C#N)cc3)n2)cc1

>  <OBSERVABLE>
pKi

>  <OBSERVED_VALUE>
6.27

$$$$

Now for another entry.
IN: Look at this molecule and give its reported pKi. Cc1cc(OS(=O)(=O)c2ccc(Cl)cc2)cc2c1C(=O)/C(=C/c1cccnc1)O2
OUT: 6.23
